Values were extracted from PubChem BioAssay AID1963871.

Tested on: KRAS-mutant PDC multicell tumor spheroid viability;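 further: viability read after seven days of drug exposure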
Experiment description: Anticancer human tumor 521955-158-R2-J5-PDC patient-derived pancreatic carcinoma cell line growth inhibition [KRAS2]
Condition details: second compound 0.1 µM; first compound 0.1 µM; active compounds read low
Measured viability, T/C values are reported for all entries that follow.

| Molecule | viability, T/C |
| --- | --- |
| CN(C)C/C=C/C(=O)Nc1cc2c(Nc3ccc(F)c(Cl)c3)ncnc2cc1O[C@H]1CCOC1 + C=CC(=O)N1CCN(c2nc(=O)n(-c3c(C)ccnc3C(C)C)c3nc(-c4c(O)cccc4F)c(F)cc23)C(C)C1 | 80.5% |
| CC1(C)CCC(CN2CCN(c3ccc(C(=O)NS(=O)(=O)c4ccc(NCC5CCOCC5)c([N+](=O)[O-])c4)c(Oc4cnc5[nH]ccc5c4)c3)CC2)=C(c2ccc(Cl)cc2)C1 + COc1cc2nc(C)nc(NC(C)c3cc(N)cc(C(F)(F)F)c3)c2cc1OC1CCOC1 | 82.6% |

Exam item: Fill in the blank: the reported viability, T/C of Cn1ncnc1[C@H]1c2n[nH]c(=O)c3cc(F)cc(c23)N[C@@H]1c1ccc(F)cc1 + CNCc1ccccc1-c1csc(C(C)Nc2nc(C)nc3cc(OC)c(OC)cc23)c1 is ____.
Marked response: 81%

Exam item: Fill in the blank: the reported viability, T/C of CCNC(=O)CC1N=C(c2ccc(Cl)cc2)c2cc(OC)ccc2-n2c(C)nnc21 (stereo unspecified) + C=CC(=O)N1CCN(c2nc(OCC3CCCN3C)nc3c2CCN(c2cccc4cccc(C)c24)C3)CC1CC#N is ____.
Marked response: 79.4%

Exam item: Fill in the blank: the reported viability, T/C of CC1COCCN1c1cc(-c2ccnn2C)c2ccnc(-c3ccn[nH]3)c2n1 (stereo unspecified) + C=CC(=O)N1CCN(c2nc(=O)n(-c3c(C)ccnc3C(C)C)c3nc(-c4c(O)cccc4F)c(F)cc23)C(C)C1 is ____.
Marked response: 10.5%

Exam item: Fill in the blank: the reported viability, T/C of Cn1ncnc1[C@H]1c2n[nH]c(=O)c3cc(F)cc(c23)N[C@@H]1c1ccc(F)cc1 + C=CC(=O)N1CCN(c2nc(OCC3CCCN3C)nc3c2CCN(c2cccc4cccc(C)c24)C3)CC1CC#N is ____.
Marked response: 77.6%
